experimentDescription: Partition coefficient octanol/buffer pH 7.4 (lg P)
Assay type: physicochemical
measurementConditions: pH 7, Diastereomerengemisch, Octanol/Puffer, pH 7,4, read-out: lg P Gemisch
Can you tell me logD for the items I'm about to list?
One number for each entry.

Record excerpt, results attached:
>>> numericresult("Nc1ncnc2c1nc(Sc1ccc(Cl)cc1)n2[C@@H]1O[C@@H]2COP(=O)(OCc3ccccc3)O[C@H]2[C@H]1O (stereo partly shown)")
2.24
>>> numericresult("Nc1ncnc2c1nc(SCc1ccccc1)n2[C@@H]1O[C@@H]2COP(=O)(OCc3ccccc3)O[C@H]2[C@H]1O (stereo partly shown)")
1.92
>>> numericresult("Nc1ncnc2c1nc(Br)n2[C@@H]1O[C@@H]2COP(=O)(OCc3ccccc3)O[C@H]2[C@H]1O (stereo partly shown)")
1.58
>>> numericresult("Nc1ncnc2c1nc(NCc1ccccc1)n2[C@@H]1O[C@@H]2COP(=O)(OCc3ccccc3)O[C@H]2[C@H]1O (stereo partly shown)")
1.97
>>> numericresult("CN(Cc1ccccc1)c1nc2c(N)ncnc2n1[C@@H]1O[C@@H]2COP(=O)(OCc3ccccc3)O[C@H]2[C@H]1O (stereo partly shown)")
2.29

Batch request: logD for each of the following compounds.
1. CSc1nc2c(N)ncnc2n1[C@@H]1O[C@@H]2COP(=O)(OCc3ccccc3)O[C@H]2[C@H]1O (stereo partly shown)
2. Nc1ncnc2c1nc([Se]Cc1ccccc1)n2[C@@H]1O[C@@H]2COP(=O)(OCc3ccccc3)O[C@H]2[C@H]1O (stereo partly shown)

1: 1.62; 2: 1.67
